- protocol_details: in vitro
- measurement_parameters: human
Below is a list of entries, each paired with its recorded CC50 at 2 days value.
Answer format: numeric, µM implied, no suffix.

Sample records with CC50 at 2 days:
1. Cc1cccc(OCCn2c(C)nc3ccccc32)c1 [Compound 6285199]    97.7
2. FC(F)(F)c1cccc(OCCCCn2cnc3ccccc32)c1 [Compound 7925004]    29.2
3. Cc1ccc(OCCn2cnc3ccccc32)c(C)c1 [Compound 7706808]    89.1
4. Cc1ccc(CSCc2nc3ccccc3[nH]2)cc1 [Compound 7121781]    74.2
5. Cc1ccc(C(C)C)c(OCC(O)Cn2cnc3ccccc32)c1 (centres unmarked) [Compound 6093301]    21.8
6. Cc1ccccc1OCCCn1c(C)nc2ccccc21 [Compound 7916923]    45.5
7. CC(C)Oc1cccc(OCCn2cnc3ccccc32)c1 [Compound 7926496]    94.5
8. Cc1nc2ccccc2n1Cc1ccc(C(C)(C)C)cc1 [Compound 5521938]    35.3

Turning now to a further molecule:
Sample Cc1nc2ccccc2n1CCOc1ccccc1Cl [Compound 5561642] ; CC50 at 2 days observed: 93.1
